// data source = the NIST ThermoML archive (doi:10.1016/j.fluid.2017.03.011)

Method: an = ratio of the nth substance listed
Applied Conditions: 318.15 K; 101 kPa; Liquid; Vibrating tube method; a2 = 3
Would you mind telling me the reported mass density of each entry?
The reply should contain only the number, in kg/m3.

Dear colleague, please send me the reported mass density for CCC[N+](CCC)(CCC)Cc1ccccc1.[Cl-] [benzyltripropylammonium chloride] + OCC(O)CO when you can. 1117.51

Specify measured mass density for CCC[N+](CCC)(CCC)Cc1ccccc1.[Cl-] [benzyltripropylammonium chloride] + Oc1ccccc1 . 1043.91

Determine its reported mass density: CCC[N+](CCC)(CCC)Cc1ccccc1.[Cl-] [benzyltripropylammonium chloride] + OCCO 1048.27

Indicate the recorded mass density value for this molecule: CCC[N+](CCC)(CCC)Cc1ccccc1.[Cl-] [benzyltripropylammonium chloride] + CC(O)C(=O)O 1102.71
